conditions: in n-butanol, 333.15 K
READOUT: solubility (mole fraction)
Give bare numbers.

Qu. Which measured solubility (mole fraction) value corresponds to O=C(O)/C=C/c1ccc(O)cc1 ?
Ans. 0.0924

* * *

conditions: in n-butanol, 303.15 K
READOUT: solubility (mole fraction)
Give bare numbers.

Qu. # input molecule: O=C(O)/C=C/c1ccc(O)cc1 ; wanted: its solubility (mole fraction)
Ans. 0.0432

* * *

settings: in isobutanol, 323.15 K
READOUT: solubility (mole fraction)
One number for each entry.

Qu. What value of measured solubility (mole fraction) is listed for O=C(O)/C=C/c1ccc(O)cc1 ?
Ans. 0.0425

* * *

conditions: in ethanol, 303.15 K
READOUT: solubility (mole fraction)
One number for each entry.

Qu. I have this compound here, O=C(O)/C=C/c1ccc(O)cc1 , and I need its recorded solubility (mole fraction).
Ans. 0.0507

* * *

conditions: in isobutanol, 333.15 K
READOUT: solubility (mole fraction)
One number for each entry.

Qu. # lookup: solubility (mole fraction) of O=C(O)/C=C/c1ccc(O)cc1
Ans. 0.0535

* * *

conditions: in n-butanol, 313.15 K
READOUT: solubility (mole fraction)
Numbers only.

Qu. What value of measured solubility (mole fraction) is listed for O=C(O)/C=C/c1ccc(O)cc1 ?
Ans. 0.0582

* * *

settings: in isopropanol, 303.15 K
READOUT: solubility (mole fraction)
Give bare numbers.

Qu. For the molecule shown here, O=C(O)/C=C/c1ccc(O)cc1 , give the reported solubility (mole fraction).
Ans. 0.0373

* * *

conditions: in methanol, 333.15 K
READOUT: solubility (mole fraction)
Numbers only.

Qu. Recorded solubility (mole fraction) of O=C(O)/C=C/c1ccc(O)cc1 , please.
Ans. 0.0757

* * *

details: in isobutanol, 303.15 K
READOUT: solubility (mole fraction)
Numbers only.

Qu. What solubility (mole fraction) value was documented for this molecule, O=C(O)/C=C/c1ccc(O)cc1 ?
Ans. 0.0256

* * *

details: in isopropanol, 318.15 K
READOUT: solubility (mole fraction)
Answers are plain numbers.

Qu. # get_value(readout='solubility (mole fraction)', item= O=C(O)/C=C/c1ccc(O)cc1 )
Ans. 0.0511

* * *

conditions: in n-butanol, 323.15 K
READOUT: solubility (mole fraction)

Qu. Requested field: solubility (mole fraction). Item: O=C(O)/C=C/c1ccc(O)cc1
Ans. 0.0731

* * *

conditions: in methyl acetate, 303.15 K
READOUT: solubility (mole fraction)
Answers are plain numbers.

Qu. Could you tell me which solubility (mole fraction) is on file for O=C(O)/C=C/c1ccc(O)cc1 ?
Ans. 0.0205

* * *

conditions: in methyl acetate, 318.15 K
READOUT: solubility (mole fraction)
Give bare numbers.

Qu. Which solubility (mole fraction) reading was recorded for the molecule O=C(O)/C=C/c1ccc(O)cc1 ?
Ans. 0.034

* * *

conditions: in ethyl acetate, 333.15 K
READOUT: solubility (mole fraction)
Numbers only.

Qu. Which solubility (mole fraction) reading was recorded for the compound O=C(O)/C=C/c1ccc(O)cc1 ?
Ans. 0.0286

* * *

details: in acetone, 323.15 K
READOUT: solubility (mole fraction)
Answers are plain numbers.

Qu. Name the reported solubility (mole fraction) value associated with the compound O=C(O)/C=C/c1ccc(O)cc1
Ans. 0.0685

* * *

conditions: in methanol, 293.15 K
READOUT: solubility (mole fraction)
One number for each entry.

Qu. Which solubility (mole fraction) is reported for this molecule? O=C(O)/C=C/c1ccc(O)cc1
Ans. 0.036

* * *

conditions: in n-butanol, 308.15 K
READOUT: solubility (mole fraction)
Give bare numbers.

Qu. # query: solubility (mole fraction) of entry O=C(O)/C=C/c1ccc(O)cc1
Ans. 0.0503

* * *

conditions: in isopropanol, 308.15 K
READOUT: solubility (mole fraction)
Answers are plain numbers.

Qu. Look up solubility (mole fraction) for this molecule: O=C(O)/C=C/c1ccc(O)cc1
Ans. 0.0417

* * *

details: in methanol, 318.15 K
READOUT: solubility (mole fraction)
One number for each entry.

Qu. Which value of solubility (mole fraction) has been reported for O=C(O)/C=C/c1ccc(O)cc1 in the records?
Ans. 0.0573

* * *

conditions: in n-propanol, 318.15 K
READOUT: solubility (mole fraction)

Qu. Find the recorded solubility (mole fraction) belonging to O=C(O)/C=C/c1ccc(O)cc1 and report it.
Ans. 0.0588

* * *

conditions: in isobutanol, 328.15 K
READOUT: solubility (mole fraction)
Numbers only.

Qu. # solubility (mole fraction) lookup, item O=C(O)/C=C/c1ccc(O)cc1
Ans. 0.0483

* * *

conditions: in isobutanol, 293.15 K
READOUT: solubility (mole fraction)
Answers are plain numbers.

Qu. Which value of solubility (mole fraction) has been reported for O=C(O)/C=C/c1ccc(O)cc1 in the records?
Ans. 0.0193

* * *

conditions: in ethanol, 308.15 K
READOUT: solubility (mole fraction)

Qu. Item under review: O=C(O)/C=C/c1ccc(O)cc1 . Reported solubility (mole fraction)?
Ans. 0.0552

* * *

details: in ethanol, 293.15 K
READOUT: solubility (mole fraction)

Qu. Return reported solubility (mole fraction); argument: O=C(O)/C=C/c1ccc(O)cc1
Ans. 0.0409

* * *

details: in acetone, 333.15 K
READOUT: solubility (mole fraction)
Numbers only.

Qu. Which solubility (mole fraction) is listed for O=C(O)/C=C/c1ccc(O)cc1 ?
Ans. 0.0825

* * *

settings: in acetone, 308.15 K
READOUT: solubility (mole fraction)

Qu. Could you tell me which solubility (mole fraction) is on file for O=C(O)/C=C/c1ccc(O)cc1 ?
Ans. 0.0516

* * *

details: in n-propanol, 293.15 K
READOUT: solubility (mole fraction)
One number for each entry.

Qu. // returns reported solubility (mole fraction) for input O=C(O)/C=C/c1ccc(O)cc1
Ans. 0.0334

* * *

conditions: in methanol, 323.15 K
READOUT: solubility (mole fraction)
Numbers only.

Qu. Name the reported solubility (mole fraction) value associated with the compound O=C(O)/C=C/c1ccc(O)cc1
Ans. 0.063

* * *

details: in n-propanol, 323.15 K
READOUT: solubility (mole fraction)
Give bare numbers.

Qu. Any idea what solubility (mole fraction) was measured for O=C(O)/C=C/c1ccc(O)cc1 ?
Ans. 0.0652

* * *

conditions: in isopropanol, 293.15 K
READOUT: solubility (mole fraction)
Numbers only.

Qu. Would you mind telling me what solubility (mole fraction) value was observed for O=C(O)/C=C/c1ccc(O)cc1 ?
Ans. 0.0294

* * *

details: in ethanol, 328.15 K
READOUT: solubility (mole fraction)
Give bare numbers.

Qu. Given the compound O=C(O)/C=C/c1ccc(O)cc1 , what is its reported solubility (mole fraction)?
Ans. 0.0785

* * *

details: in n-propanol, 303.15 K
READOUT: solubility (mole fraction)
Answers are plain numbers.

Qu. For the compound shown here, O=C(O)/C=C/c1ccc(O)cc1 , give the reported solubility (mole fraction).
Ans. 0.0429

* * *

conditions: in n-butanol, 328.15 K
READOUT: solubility (mole fraction)
Give bare numbers.

Qu. What does the data say about its solubility (mole fraction)? Entry: O=C(O)/C=C/c1ccc(O)cc1
Ans. 0.0823

* * *

settings: in ethanol, 313.15 K
READOUT: solubility (mole fraction)
Numbers only.

Qu. Using the record for O=C(O)/C=C/c1ccc(O)cc1 , report its solubility (mole fraction).
Ans. 0.0614

* * *

conditions: in isopropanol, 333.15 K
READOUT: solubility (mole fraction)
Numbers only.

Qu. Which value of solubility (mole fraction) has been reported for O=C(O)/C=C/c1ccc(O)cc1 in the records?
Ans. 0.067

* * *

details: in ethyl acetate, 318.15 K
READOUT: solubility (mole fraction)
Answers are plain numbers.

Qu. Returns the measured solubility (mole fraction) for the input compound. Input: O=C(O)/C=C/c1ccc(O)cc1
Ans. 0.0205

* * *

conditions: in n-butanol, 298.15 K
READOUT: solubility (mole fraction)

Qu. Return reported solubility (mole fraction); argument: O=C(O)/C=C/c1ccc(O)cc1
Ans. 0.0371

* * *

conditions: in n-propanol, 313.15 K
READOUT: solubility (mole fraction)

Qu. Given the entry O=C(O)/C=C/c1ccc(O)cc1 , report its measured solubility (mole fraction).
Ans. 0.0525

* * *

details: in ethanol, 318.15 K
READOUT: solubility (mole fraction)
Give bare numbers.

Qu. Endpoint output: solubility (mole fraction) of O=C(O)/C=C/c1ccc(O)cc1 . Value?
Ans. 0.0666

* * *

details: in methyl acetate, 323.15 K
READOUT: solubility (mole fraction)

Qu. Bench note: what solubility (mole fraction) did O=C(O)/C=C/c1ccc(O)cc1 show?
Ans. 0.0394

* * *

settings: in ethyl acetate, 328.15 K
READOUT: solubility (mole fraction)

Qu. Report solubility (mole fraction) for O=C(O)/C=C/c1ccc(O)cc1 please.
Ans. 0.0256

* * *

settings: in acetone, 303.15 K
READOUT: solubility (mole fraction)
One number for each entry.

Qu. Consider the compound O=C(O)/C=C/c1ccc(O)cc1 and give its measured solubility (mole fraction).
Ans. 0.0468
